target.or.test.system: hNGAL (human lipocalin 2, parent wild type SEQ ID NO: 1) mutein SEQ ID NO: 44 (Homo sapiens, UniProt P80188, A60L/C107S/D97K/I61T/K154W/K93R/L123Q/L56E/L90R/N116V/Q48H/Q69M/R101V/S147V/S88E/W99D/Y120D/Y126E/Y72M)
Sequence (P80188 other isoform, or with tags, fused parts or gaps with the stated changes): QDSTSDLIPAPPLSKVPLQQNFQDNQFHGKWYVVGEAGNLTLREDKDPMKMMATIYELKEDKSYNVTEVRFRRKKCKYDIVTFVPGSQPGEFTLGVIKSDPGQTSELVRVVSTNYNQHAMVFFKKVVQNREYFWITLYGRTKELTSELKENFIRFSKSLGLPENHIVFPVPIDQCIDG
assay.name: Solution binding ELISA
pIC50: −log10 of the molar value.
Recorded pIC50 by entry

{"compound": "NC(=O)CCC(=O)Nc1cc2cc(O)c(O)cc2[n+]2c1NCC[C@H]2C(=O)N[C@H](CO)C1=NCC[C@@H](C(=O)N[C@@H](CCCN(O)C=O)C(=O)N[C@@H](CCC(N)=O)C(=O)N[C@H](CCC(N)=O)C(=O)N[C@H](CCCN(O)C=O)C(=O)NCC(=O)O)N1 [Pvd III sa (−Fe), Pvd type III succinamide]", "pIC50": 9.68}
{"compound": "NC(=O)CC[C@H](NC(=O)[C@H](CCCN([O-])C=O)NC(=O)[C@@H]1CCN=C([C@@H](CO)NC(=O)[C@@H]2CCNc3c(NC(=O)C(=O)CCC(=O)O)cc4cc([O-])c([O-])cc4[n+]32)N1)C(=O)N[C@H](CCC(N)=O)C(=O)N[C@H](CCCN([O-])C=O)C(=O)NCC(=O)O.[Fe+3] [Pvd III aKG (+Fe), Pvd type III α-ketoglutaryl]", "pIC50": 9.03}
{"compound": "NC(=O)CC[C@H](NC(=O)[C@H](CCCN(O)C=O)NC(=O)[C@@H]1CCN=C([C@@H](CO)NC(=O)[C@@H]2CCNc3c(NC(=O)C(=O)CCC(=O)O)cc4cc(O)c(O)cc4[n+]32)N1)C(=O)N[C@H](CCC(N)=O)C(=O)N[C@H](CCCN(O)C=O)C(=O)NCC(=O)O [Pvd III aKG (−Fe), Pvd type III α-ketoglutaryl]", "pIC50": 8.96}
{"compound": "NC(=O)CCC(=O)Nc1cc2cc([O-])c([O-])cc2[n+]2c1NCC[C@H]2C(=O)N[C@H](CO)C1=NCC[C@@H](C(=O)N[C@@H](CCCN([O-])C=O)C(=O)N[C@@H](CCC(N)=O)C(=O)N[C@H](CCC(N)=O)C(=O)N[C@H](CCCN([O-])C=O)C(=O)NCC(=O)O)N1.[Fe+3] [Pvd III sa (+Fe), Pvd type III succinamide]", "pIC50": 9.59}

Source of measurements: patent US10947284B2
